Data origin: paper PMC8126837

- study-target: SARS2 S1
quantity-name: IC50 (nM)
Output spec: scalar in nM, unitless text.

Quickly give me recorded IC50 for WNbFc 15 (Fc fusion) QVQLQESGGGLVQPGGSLRLSCAASGFTFSSYLMGWFRQVPGKGLEWVSGIYSDGGTYYADSVKGRFTISRDNAKNTVYLQMNSLKPEDTAVYYCATDRMEGSSWPERDFGSWGQGTQVTVSS
1.07

Quickly give me recorded IC50 for WNbFc 2 (Fc fusion) QVQLQESGGGLVQPGGSLRLSCAVSGFTLDYYAIGWFRQAPGKEREGVSCISSSGGNTKYADSVKGRFTASRDNAKNTFYLQMNSLKPEDTAVYYCAAIAATYYSGSYYFQCPHDGMDYWGKGTQVTVSS
0.66

Quickly give me recorded IC50 for WNbFc 36 (Fc fusion) QVQLQESGGGLVQPGGSLRLSCAVSGFTLDYYAIGWFRQAPGKEREGVSCISNSGGNTKYADSVKGRFTTSVDNAQNTVYLLMNSLEPEDTAVYYCAAIAATYYSGTYYYQCPHYGMDYWGKGTQVTVSS
0.32

Quickly give me recorded IC50 for WNbFc 7 (Fc fusion) QVQLQESGGGLVQPGGSLRLSCAAPGFTFSSYAMGWFRQVPGKGLEWVSGIYSDGSTYYADSVKGRFTISRDNAKNTVYLQMNSLKPEDTAVYYCAKDRLEGSSWPERDFGSWGQGTQVTVSS
0.45
